Values from paper PMC5823510

Molecular target: hOGG1 (Homo sapiens, UniProt O15527)
Sequence (O15527 whole entry): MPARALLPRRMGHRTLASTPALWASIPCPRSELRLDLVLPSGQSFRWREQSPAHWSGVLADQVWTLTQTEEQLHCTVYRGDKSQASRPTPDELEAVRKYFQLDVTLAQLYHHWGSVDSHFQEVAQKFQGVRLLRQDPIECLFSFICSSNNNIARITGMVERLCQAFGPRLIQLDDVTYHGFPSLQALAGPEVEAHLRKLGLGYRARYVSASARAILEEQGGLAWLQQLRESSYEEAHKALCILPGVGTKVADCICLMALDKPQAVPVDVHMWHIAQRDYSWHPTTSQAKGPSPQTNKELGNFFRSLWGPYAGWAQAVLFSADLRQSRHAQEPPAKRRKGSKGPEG
Recorded metric: IC50 (nM)
Numbers only here, please. The scale is nM.

Report measured IC50 on hOGG1 (Homo sapiens, UniProt O15527); entry: NC(=O)c1cccc(-c2ccc(S(=O)(=O)Nc3ccc4c(c3)N(C(=O)C3CC3)CCC4)cc2)c1 [Compound 41]
59
